experimental_details: Human pharmacokinetics, heart failure subjects, 7.5-hour continuous ascending dose IV infusion
condition_notes: in vivo, infusion rate 0.3/1/3 ng/kg/min, mean, N = 2
experimental_readout: Cmax (ng/mL)

In [3]: df
Out[3]:
                                  substance  observed_measurement
0  H-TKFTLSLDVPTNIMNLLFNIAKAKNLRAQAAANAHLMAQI-NH2 [SEQ ID NO: 1]                 0.826
